Molecular target: T1, HeV-G
T1 chain: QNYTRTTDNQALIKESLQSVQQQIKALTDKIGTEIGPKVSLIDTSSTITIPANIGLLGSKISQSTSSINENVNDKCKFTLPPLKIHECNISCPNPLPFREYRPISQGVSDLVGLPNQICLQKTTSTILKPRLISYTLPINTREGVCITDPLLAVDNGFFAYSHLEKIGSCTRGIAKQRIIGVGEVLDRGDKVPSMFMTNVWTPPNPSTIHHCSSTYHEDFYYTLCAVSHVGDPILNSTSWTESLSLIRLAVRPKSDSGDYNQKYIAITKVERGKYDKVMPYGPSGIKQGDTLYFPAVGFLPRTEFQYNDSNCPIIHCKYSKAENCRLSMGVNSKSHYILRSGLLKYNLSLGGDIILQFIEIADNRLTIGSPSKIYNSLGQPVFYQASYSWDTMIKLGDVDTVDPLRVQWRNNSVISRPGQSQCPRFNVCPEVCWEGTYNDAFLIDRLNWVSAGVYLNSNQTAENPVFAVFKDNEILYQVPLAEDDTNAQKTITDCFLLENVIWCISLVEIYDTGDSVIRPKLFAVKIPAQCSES
Provide the reported EC50 of each item.
Param answer (str): number followed by unit.

Reference set, count: 2
INSERT INTO results (binder, reported_value) VALUES
  ('HENV-122 (antibody, V domains shown) VH: EVQLLESGGGLVQPGGSLRLSCAASGFTFSTNAMSWVRQAPGKGLEWVSTVSGSGAHPNYGDSVKGRFTISRVNSKNTLFLQMSSLRAEDTAIYYCARVSTVTVGGHIPRGYYFDYWGQGTLVTVSS VL: EILLTQSPGTLSLSPGERATLSCRASQSASSSYLAWYQQKPGQAPRLLIYGASTRATGIPDRFSGSGSGTEFTLTISRLESEDFAVYYCHHYGSSRTFGQGTKVEVK', '0.387 nM'),
  ('HENV-222 (antibody, V domains shown) VH: QVQLQESGPGLVKPSETLSLTCTVSGGSIDSYYWSWIRQPAGKGLEWIGRIYPSGTTNYNPSLKSRVTMSVDTSKNQFSLKVTSVTAADTAVYYCARMQTGFGSSLFFVPYFDNWGQGTLVTVSS VL: EIVLTQSPATLSLSPGERATLSCRASQSVSSYLAWYQQKPGQAPRLLIYDASNRATGIPARFSGSGSGTDFTLTISSLEPEDFAVYYCQQRGNWPLTFGGGTKVEIK', '5.66 nM');

Consider the additional binder presented here.
q: So what does the record say about EC50 for HENV-141 (antibody, V domains shown) VH: QVQLVQSGAEVKKPGSSVKVSCKASGGTFSSYTISWVRQAPGQGLEWMGRIIPISGITNYAQKFQGRVTITADKSTSTAYMELSSLRSEDTAVYYCAKDCYYGSGTYYGCRADYQWHHTMDVWGQGTTVTVSS VL: DIQMTQSPSSLSASVGDRVTITCRASQGIRNDLGWFQQKPGKAPKRLIYAASSLQSGVPSRFSGSGSGTEFTLTISSLQPEDFATYFCLQHNTYPLTFGQGTKVEIK ?
a: 0.326 nM
